The measurements presented in this section are drawn from the supplement of paper PMC10065799.

Give measured phosphorylation enrichment for each item. Keep answers brief.
Target: FGFR3 (UniProt P22607)
Sequence (P22607 whole entry, looked up): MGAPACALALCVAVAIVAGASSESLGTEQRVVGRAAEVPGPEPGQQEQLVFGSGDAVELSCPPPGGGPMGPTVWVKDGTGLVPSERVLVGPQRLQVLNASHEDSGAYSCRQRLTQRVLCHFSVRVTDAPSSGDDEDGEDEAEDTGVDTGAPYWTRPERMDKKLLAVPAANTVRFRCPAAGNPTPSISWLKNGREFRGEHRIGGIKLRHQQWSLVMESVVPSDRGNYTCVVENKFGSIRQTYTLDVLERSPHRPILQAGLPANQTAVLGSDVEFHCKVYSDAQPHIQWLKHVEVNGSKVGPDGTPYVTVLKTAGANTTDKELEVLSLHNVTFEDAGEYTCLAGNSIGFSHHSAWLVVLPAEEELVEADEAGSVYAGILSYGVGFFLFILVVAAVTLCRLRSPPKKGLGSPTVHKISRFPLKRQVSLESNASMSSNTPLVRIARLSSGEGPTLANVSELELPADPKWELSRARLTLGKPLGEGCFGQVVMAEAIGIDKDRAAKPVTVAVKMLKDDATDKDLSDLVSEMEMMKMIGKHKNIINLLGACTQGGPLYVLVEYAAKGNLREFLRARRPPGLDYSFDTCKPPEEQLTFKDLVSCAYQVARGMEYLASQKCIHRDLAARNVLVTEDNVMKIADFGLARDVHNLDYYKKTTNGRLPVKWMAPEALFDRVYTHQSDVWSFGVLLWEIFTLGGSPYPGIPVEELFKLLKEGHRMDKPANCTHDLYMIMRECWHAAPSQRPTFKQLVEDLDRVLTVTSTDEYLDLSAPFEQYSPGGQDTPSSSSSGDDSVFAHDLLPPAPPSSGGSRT
Experiment: phosphorylation enrichment, bacterial display (enrichment ratio); higher = better substrate or ligand; peptides without Tyr show the background;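 note: 11-residue human phosphosite peptides and single-mutation variants displayed on the E. coli surface, counted by deep sequencing, each peptide's frequency after selection divided by its frequency in the unselected input library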;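 note: frequency after pTyr selection over input frequency; kinase dosed for 20-30% of maximal phosphorylation in three min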
Would you mind answering with just the numeric figure?

Can you look up the measured phosphorylation enrichment of YLQEIYNSNNQ [FGG_Y140] for me?
0.606

Now this one: AMCVCYDGVEV [ADAMTSL2_Y594_R593C]
0.882

Now this one: RICRRYCQVLN [IQCF1_Y144_R141C]
0.66

Now this one: PNQRRYVYYYS [PTEN_Y174_S170N]
1.61

Now this one: IFLENYNAGTF [CFI_Y421_H418L_YF]
0.724

Now this one: FATAGYGSLEA [EPHA10_Y959_A956T]
0.663

Now this one: WTAHSYRMGSA [ARHGEF7_Y785_T790A]
0.438
